B1: CPEB3 Ribozyme (parent)
chain: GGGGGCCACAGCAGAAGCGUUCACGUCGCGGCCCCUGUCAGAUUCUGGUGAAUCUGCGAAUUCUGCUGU

- Variants of: B1
- procedure_details: self-cleavage, relative activity (ratio to wild type); higher = more cleavage; co-transcriptional
Output schema: class label derived from self-cleavage. Mapping: Low (below 0.3), Medium (0.3 to below 0.7), High (0.7 or more)

[[record]]
macromolecule_sequence = "GGGGGCCACAGCAGAAGCGUUCACGUCGCGGCCCCUGUCAGAUUCUGGUGAAUGUCCGAAUUCUGCUGU [C54G G56C]"
class_label = "Medium"

[[record]]
macromolecule_sequence = "GGGGGCCACAGCAGAAGCGUUCACGUCGCGGCCCCUGUCAGAUUCUGGUGAAUCUGGGAAUACUGCUGU [C57G U62A]"
class_label = "Medium"

[[record]]
macromolecule_sequence = "GGGGGCCGCAGCAGAAGCGUUCACGUCGCGGCCCAUGUCAGAUUCUGGUGAAUCUGCGAAUUCUGCUGU [A8G C35A]"
class_label = "Low"

[[record]]
macromolecule_sequence = "GGGGGCCACAGCAGAAGCGUUCACGUCGCGGGCCCUCUCAGAUUCUGGUGAAUCUGCGAAUUCUGCUGU [C32G G37C]"
class_label = "Low"

[[record]]
macromolecule_sequence = "GUGGGCCACAGCAGAAGCGUUCACGUCGCGGCCCCUGUCAGAUUCUGGUGAAUCUGCGAAUUCUGCUGG [G2U U69G]"
class_label = "Low"

[[record]]
macromolecule_sequence = "GGGGGCCACAGAAGAAGCGUUCACGUCGCGGCCCCUGUCAGAUUCUGGUGAUUCUGCGAAUUCUGCUGU [C12A A52U]"
class_label = "Medium"


Okay, next one:
Task: Form: Item = GGCGGCCACAGCAGAAGCGUUCACGUCGCGGCCCCUGUCAGAUUCUGGUGAAUCUGCGAAUUCUGCGGU [G3C U67G] ; Class = ?
Result: Low
